The reported measurements were obtained from paper PMC9482650.

Molecular target: T1, MPP7, Q5T2T1
T1 sequence (Q5T2T1 134-230, limits assumed, looked up): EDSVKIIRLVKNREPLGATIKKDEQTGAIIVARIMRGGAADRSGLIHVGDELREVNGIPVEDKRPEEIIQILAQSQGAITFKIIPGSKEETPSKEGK
Test: holdup assay
Design: key: below the threshold = too weak to quantify, mostly under pKd 3.1 to 4
Conditions: plain residues with an end cap or a label only (N-terminal biotin on a linker: ado-ado)
readout name: pKd

# count of solved cases: 5
# binder, readout name, result
rows = [
    ("PSHPRLQTHV [KIRREL2, Q6UWL6]", "pKd", "below the threshold"),
    ("TGLWKHETTV [ADGRA3, Q8IWK6]", "pKd", "below the threshold"),
    ("EDGESWEYQI [TRPV6, Q9H1D0]", "pKd", 5.06),
    ("GIKKITSTAL [RPS6KA3, P51812]", "pKd", "below the threshold"),
    ("RDPPAEWTRV [PTPN18, Q99952]", "pKd", "below the threshold"),
]

Query string: # lookup: pKd of EPQYQPGENL [SRC, P12931]
Result string: below the threshold

Query string: Proceed to AQRARSPSDV [GPR12, P47775]
Result string: 3.59

Query string: Continue with LESTTVGTSV [KARS1, Q15046]
Result string: below the threshold
